# MEASUREMENT TARGET: α-amylase
# PROTOCOL: α-Amylase inhibition assay (α-Amylase Inhibitor Screening Kit)
# RECORDED CONDITIONS: mean ± SD of three independent experiments
TEST READOUT: IC50 (µM)
Give just the number in µM; leave the unit off.

[in] Name the recorded IC50 for `CC(=O)c1cc(/C=C/c2ccc(Cl)cc2)ccc1N` .
[out] 5.8

[in] Name the recorded IC50 for `COc1ccc(/C=C/c2ccc(N)c(C(=O)/C=C/c3ccc(F)cc3)c2)cc1` .
[out] 7.6

[in] Name the recorded IC50 for `CC(=O)c1cc(/C=C/c2ccccc2)ccc1N` .
[out] 2.3

[in] Name the recorded IC50 for `Nc1ccc(/C=C/c2ccc(F)cc2)cc1C(=O)/C=C/c1cccc(F)c1` .
[out] 15.6

[in] Name the recorded IC50 for `CC(=O)c1cc(/C=C/c2ccc(F)cc2)ccc1N` .
[out] 19.3

* * *

# PROTOCOL: DPPH radical scavenging assay
# RECORDED CONDITIONS: free radical scavenging; mean ± SD of three independent experiments
Lab note: cut-off is 10 µM. Strictly less in IC50 is Criterion met. Exactly 10 µM or more is Criterion not met.

[in] Given the entry COc1ccc(/C=C/c2ccc(N)c(C(C)=O)c2)cc1 [Compound 2d] , would its reported IC50 be below 10 µM?
[out] Criterion met

[in] Given the entry CC(=O)c1cc(/C=C/c2ccc(Cl)cc2)ccc1N [Compound 2c] , would its reported IC50 be below 10 µM?
[out] Criterion not met

[in] Given the entry Nc1ccc(/C=C/c2ccc(F)cc2)cc1C(=O)/C=C/c1ccc(F)cc1 [Compound 3f] , would its reported IC50 be below 10 µM?
[out] Criterion not met

[in] Given the entry COc1ccc(/C=C/c2ccc(N)c(C(=O)/C=C/c3ccc(F)cc3)c2)cc1 [Compound 3h] , would its reported IC50 be below 10 µM?
[out] Criterion not met

[in] Given the entry Nc1ccc(/C=C/c2ccccc2)cc1C(=O)/C=C/c1ccc(F)cc1 [Compound 3e] , would its reported IC50 be below 10 µM?
[out] Criterion met

[in] Given the entry O=C1O[C@H]([C@@H](O)CO)C(O)=C1O [Ascorbic acid, reference compound] , would its reported IC50 be below 10 µM?
[out] Criterion met

[in] Given the entry Nc1ccc(/C=C/c2ccccc2)cc1C(=O)/C=C/c1cccc(F)c1 [Compound 3a] , would its reported IC50 be below 10 µM?
[out] Criterion not met

[in] Given the entry Nc1ccc(/C=C/c2ccc(Cl)cc2)cc1C(=O)/C=C/c1ccc(F)cc1 [Compound 3g] , would its reported IC50 be below 10 µM?
[out] Criterion met

[in] Given the entry CC(=O)c1cc(/C=C/c2ccc(F)cc2)ccc1N [Compound 2b] , would its reported IC50 be below 10 µM?
[out] Criterion not met
